The reported numbers originate from the supplement of paper PMC4466140.

# target.entity: AgAbp1
# test: SPOT peptide array binding signal intensity (averaged, normalized) (arbitrary units (background-subtracted, floor 0; scale differs between SH3 domains)); higher = stronger binding of the SH3 domain to the peptide
Each entry falls into one class according to its SPOT peptide array binding signal intensity; the ranges are low (below 20), middle (20 to below 70), high (70 or more)

Could you tell me which band MTKTPETSPPKRPMG belongs to?
low

Now this one: RRSKSLPITPKSIFN
middle

Now this one: NAGIRPKFILALNDE
low

Now this one: QDKEGIPPDQQRLIF
low

Now this one: NNNKMRPHLPPLSSG
middle

Now this one: VDFTLPPPPPPPGLD
low

Now this one: NLPKRKPPKLQGPFS
high

Now this one: NPTKSPPPPPSPSTM
low

Now this one: LRIKRKPVQTFFEFI
high

Now this one: SRYRRPLTLLLLKPF
low

Now this one: RTIRKLPLMSLSEYF
low

Now this one: WRPRIVPILPYITRL
low

Now this one: RPPRPPPKPLHLRTE
high
